Where do these numbers come from? They come from ChEMBL document CHEMBL4184286.

- system name: Sodium channel protein type 9 subunit alpha (Homo sapiens, UniProt Q15858)
- Sequence (Q15858 whole entry): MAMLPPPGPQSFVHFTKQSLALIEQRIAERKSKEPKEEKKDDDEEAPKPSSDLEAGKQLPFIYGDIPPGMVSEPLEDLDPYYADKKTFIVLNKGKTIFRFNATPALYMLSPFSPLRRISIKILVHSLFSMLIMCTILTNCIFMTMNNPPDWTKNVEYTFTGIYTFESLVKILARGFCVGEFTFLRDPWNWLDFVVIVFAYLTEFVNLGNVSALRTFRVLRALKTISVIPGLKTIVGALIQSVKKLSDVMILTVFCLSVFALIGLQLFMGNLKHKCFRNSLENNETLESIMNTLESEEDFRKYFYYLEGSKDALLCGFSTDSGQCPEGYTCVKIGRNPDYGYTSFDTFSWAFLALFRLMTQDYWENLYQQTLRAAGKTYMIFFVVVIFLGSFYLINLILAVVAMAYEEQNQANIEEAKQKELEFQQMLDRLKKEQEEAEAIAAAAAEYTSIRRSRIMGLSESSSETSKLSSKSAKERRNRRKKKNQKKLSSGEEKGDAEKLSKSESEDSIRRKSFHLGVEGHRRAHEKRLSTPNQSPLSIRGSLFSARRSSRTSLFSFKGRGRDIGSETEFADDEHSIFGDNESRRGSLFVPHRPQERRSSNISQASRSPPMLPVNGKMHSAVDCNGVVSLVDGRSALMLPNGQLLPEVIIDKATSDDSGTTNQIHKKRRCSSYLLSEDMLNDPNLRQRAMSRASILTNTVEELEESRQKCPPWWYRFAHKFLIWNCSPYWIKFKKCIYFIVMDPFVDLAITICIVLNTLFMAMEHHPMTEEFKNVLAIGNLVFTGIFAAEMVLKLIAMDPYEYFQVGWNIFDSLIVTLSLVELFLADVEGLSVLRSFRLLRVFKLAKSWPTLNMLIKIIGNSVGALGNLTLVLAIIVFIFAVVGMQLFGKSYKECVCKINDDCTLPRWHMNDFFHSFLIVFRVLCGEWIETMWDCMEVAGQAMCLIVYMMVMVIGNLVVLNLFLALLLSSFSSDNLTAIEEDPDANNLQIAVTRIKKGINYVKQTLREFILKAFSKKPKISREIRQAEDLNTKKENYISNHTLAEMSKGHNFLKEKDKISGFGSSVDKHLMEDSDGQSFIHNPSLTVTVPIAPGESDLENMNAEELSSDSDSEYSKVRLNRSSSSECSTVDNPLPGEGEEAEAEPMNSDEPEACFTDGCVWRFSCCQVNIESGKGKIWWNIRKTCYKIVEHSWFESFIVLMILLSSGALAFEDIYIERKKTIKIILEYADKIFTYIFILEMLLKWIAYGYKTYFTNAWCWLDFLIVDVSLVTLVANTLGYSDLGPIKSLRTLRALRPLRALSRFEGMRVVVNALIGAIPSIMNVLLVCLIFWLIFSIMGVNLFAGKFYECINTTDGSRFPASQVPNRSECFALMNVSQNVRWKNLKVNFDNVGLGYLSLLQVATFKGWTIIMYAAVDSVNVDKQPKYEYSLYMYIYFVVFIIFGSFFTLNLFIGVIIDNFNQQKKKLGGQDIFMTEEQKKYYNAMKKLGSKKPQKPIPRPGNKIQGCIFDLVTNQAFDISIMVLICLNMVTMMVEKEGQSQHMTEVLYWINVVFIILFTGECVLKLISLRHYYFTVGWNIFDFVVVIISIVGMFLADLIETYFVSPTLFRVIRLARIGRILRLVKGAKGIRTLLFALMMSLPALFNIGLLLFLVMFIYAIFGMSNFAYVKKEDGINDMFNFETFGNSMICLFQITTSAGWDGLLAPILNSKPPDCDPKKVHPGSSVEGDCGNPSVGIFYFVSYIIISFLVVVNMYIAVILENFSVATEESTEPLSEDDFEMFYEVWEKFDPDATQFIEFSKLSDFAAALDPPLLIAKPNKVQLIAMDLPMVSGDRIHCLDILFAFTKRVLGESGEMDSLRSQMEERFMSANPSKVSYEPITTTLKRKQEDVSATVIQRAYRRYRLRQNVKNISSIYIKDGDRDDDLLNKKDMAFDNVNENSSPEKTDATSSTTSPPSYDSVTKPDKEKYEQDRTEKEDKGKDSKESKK
- measurement protocol: Antagonist activity at recombinant human Nav1.7 expressed in HEK293 cells assessed as reduction in channel current at -60 mV holding potential after 600 secs by barracuda automated electrophysiology method
- Type: cell-based
Recorded IC50, one value per entry.
property: IC50 (µM)

>  <molecule>
N#Cc1cccc(C2NCCOC2Oc2cc(F)c(S(=O)(=O)Nc3ncns3)cc2F)c1 (single isomer, unassigned; isomer A)

>  <system name>
Sodium channel protein type 9 subunit alpha (Homo sapiens, UniProt Q15858)

>  <property>
IC50

>  <value reported>
0.92

$$$$
>  <molecule>
N#Cc1ccc(C2NCCOC2Oc2cc(F)c(S(=O)(=O)Nc3ncns3)cc2F)cc1 (single isomer, unassigned; isomer A)

>  <system name>
Sodium channel protein type 9 subunit alpha (Homo sapiens, UniProt Q15858)

>  <property>
IC50

>  <value reported>
1.5

$$$$
>  <molecule>
COc1cccc(C2NCCOC2Oc2cc(F)c(S(=O)(=O)Nc3ncns3)cc2F)c1 (single isomer, unassigned; isomer B)

>  <system name>
Sodium channel protein type 9 subunit alpha (Homo sapiens, UniProt Q15858)

>  <property>
IC50

>  <value reported>
1.6

$$$$
>  <molecule>
O=S(=O)(Nc1ncns1)c1cc(F)c(OC2OCCNC2c2ccc3ncccc3c2)cc1F (single isomer, unassigned; isomer A)

>  <system name>
Sodium channel protein type 9 subunit alpha (Homo sapiens, UniProt Q15858)

>  <property>
IC50

>  <value reported>
2.8

$$$$
>  <molecule>
O=S(=O)(Nc1ncns1)c1cc(F)c(OC2OCCNC2c2ccc3c(c2)OCO3)cc1F (single isomer, unassigned; isomer B)

>  <system name>
Sodium channel protein type 9 subunit alpha (Homo sapiens, UniProt Q15858)

>  <property>
IC50

>  <value reported>
1.1

$$$$
>  <molecule>
O=S(=O)(Nc1ncns1)c1cc(F)c(CO[C@H]2OCCN[C@@H]2c2ccc(F)cc2)cc1F

>  <system name>
Sodium channel protein type 9 subunit alpha (Homo sapiens, UniProt Q15858)

>  <property>
IC50

>  <value reported>
2.5

$$$$
>  <molecule>
O=S(=O)(Nc1ncns1)c1cc(F)c(OC2OCCNC2c2ccc3cnccc3c2)cc1F (single isomer, unassigned; isomer B)

>  <system name>
Sodium channel protein type 9 subunit alpha (Homo sapiens, UniProt Q15858)

>  <property>
IC50

>  <value reported>
0.51

$$$$
>  <molecule>
O=S(=O)(Nc1ncns1)c1cc(F)c(OC2OCCNC2c2cc(Cl)cc(Cl)c2)cc1F (single isomer, unassigned; isomer A)

>  <system name>
Sodium channel protein type 9 subunit alpha (Homo sapiens, UniProt Q15858)

>  <property>
IC50

>  <value reported>
0.84

$$$$
>  <molecule>
COc1ccccc1C1NCCOC1Oc1cc(F)c(S(=O)(=O)Nc2ncns2)cc1F (single isomer, unassigned; isomer B)

>  <system name>
Sodium channel protein type 9 subunit alpha (Homo sapiens, UniProt Q15858)

>  <property>
IC50

>  <value reported>
4.6

$$$$
>  <molecule>
O=S(=O)(Nc1ncns1)c1cc(F)c(OC2OCCNC2c2ccc(Cl)c(Cl)c2)cc1F (single isomer, unassigned; isomer B)

>  <system name>
Sodium channel protein type 9 subunit alpha (Homo sapiens, UniProt Q15858)

>  <property>
IC50

>  <value reported>
0.17

$$$$
>  <molecule>
COc1ccc(C2NCCOC2Oc2cc(F)c(S(=O)(=O)Nc3ncns3)cc2F)cc1 (single isomer, unassigned; isomer A)

>  <system name>
Sodium channel protein type 9 subunit alpha (Homo sapiens, UniProt Q15858)

>  <property>
IC50

>  <value reported>
0.81

$$$$
>  <molecule>
N#Cc1ccc(C2NCCOC2Oc2cc(F)c(S(=O)(=O)Nc3ncns3)cc2F)cc1 (single isomer, unassigned; isomer B)

>  <system name>
Sodium channel protein type 9 subunit alpha (Homo sapiens, UniProt Q15858)

>  <property>
IC50

>  <value reported>
4

$$$$
>  <molecule>
O=S(=O)(Nc1ncns1)c1cc(F)c(OC2OCCNC2c2ccc(C(F)(F)F)cc2)cc1F (single isomer, unassigned; isomer B)

>  <system name>
Sodium channel protein type 9 subunit alpha (Homo sapiens, UniProt Q15858)

>  <property>
IC50

>  <value reported>
9.7

$$$$
>  <molecule>
CN(C)c1noc2ccc(C3NCCOC3Oc3cc(F)c(S(=O)(=O)Nc4ncns4)cc3F)cc12 (single isomer, unassigned; isomer B)

>  <system name>
Sodium channel protein type 9 subunit alpha (Homo sapiens, UniProt Q15858)

>  <property>
IC50

>  <value reported>
0.14

$$$$
